// provenance: patent US4075339A

System: S. Hemolyticus
assay-procedure: Bacterial inhibition, MIC in brain heart infusion broth
Assay type: cell-based
test-settings: read-out: MIC (minimal inhibitory concentration)
Entries and their measured log10(MIC) follow.
assay-readout: log10(MIC) (log10 of the value in mg/L)

{"molecule": "COC1=C2CC(C)CC(OC)C(O)C(C)/C=C(\\C)C(OC(N)=O)C(OC)/C=C\\C=C(/C)C(=O)NC(=C(C=NC(C)(C)C)C1=O)C2=O (centres unmarked)", "measured-target": "S. Hemolyticus", "log10(MIC)": 2.40}
{"molecule": "CCCCCCCCON=CC1=C2NC(=O)/C(C)=C/C=C\\C(OC)C(OC(N)=O)/C(C)=C/C(C)C(O)C(OC)CC(C)CC(=C(OC)C1=O)C2=O (centres unmarked)", "measured-target": "S. Hemolyticus", "log10(MIC)": 0.89}
{"molecule": "COC1=C2CC(C)CC(OC)C(O)C(C)/C=C(\\C)C(OC(N)=O)C(OC)/C=C\\C=C(/C)C(=O)NC(=C(C=NN3CCN(C)CC3)C1=O)C2=O (centres unmarked)", "measured-target": "S. Hemolyticus", "log10(MIC)": 2.70}
{"molecule": "COC1=C2CC(C)CC(OC)C(O)C(C)/C=C(\\C)C(OC(N)=O)C(OC)/C=C\\C=C(/C)C(=O)NC(=C(C=NN3CCN(Cc4ccccc4)CC3)C1=O)C2=O (centres unmarked)", "measured-target": "S. Hemolyticus", "log10(MIC)": 2.10}
{"molecule": "COC1=C2CC(C)CC(OC)C(O)C(C)/C=C(\\C)C(OC(N)=O)C(OC)/C=C\\C=C(/C)C(=O)NC(=C(C=NOC(c3ccccc3)c3ccccc3)C1=O)C2=O (centres unmarked)", "measured-target": "S. Hemolyticus", "log10(MIC)": 1.49}

* * *

measured-target: E. coli RNA Polymerase (Escherichia coli)
Sequence (P0A8V2 whole entry): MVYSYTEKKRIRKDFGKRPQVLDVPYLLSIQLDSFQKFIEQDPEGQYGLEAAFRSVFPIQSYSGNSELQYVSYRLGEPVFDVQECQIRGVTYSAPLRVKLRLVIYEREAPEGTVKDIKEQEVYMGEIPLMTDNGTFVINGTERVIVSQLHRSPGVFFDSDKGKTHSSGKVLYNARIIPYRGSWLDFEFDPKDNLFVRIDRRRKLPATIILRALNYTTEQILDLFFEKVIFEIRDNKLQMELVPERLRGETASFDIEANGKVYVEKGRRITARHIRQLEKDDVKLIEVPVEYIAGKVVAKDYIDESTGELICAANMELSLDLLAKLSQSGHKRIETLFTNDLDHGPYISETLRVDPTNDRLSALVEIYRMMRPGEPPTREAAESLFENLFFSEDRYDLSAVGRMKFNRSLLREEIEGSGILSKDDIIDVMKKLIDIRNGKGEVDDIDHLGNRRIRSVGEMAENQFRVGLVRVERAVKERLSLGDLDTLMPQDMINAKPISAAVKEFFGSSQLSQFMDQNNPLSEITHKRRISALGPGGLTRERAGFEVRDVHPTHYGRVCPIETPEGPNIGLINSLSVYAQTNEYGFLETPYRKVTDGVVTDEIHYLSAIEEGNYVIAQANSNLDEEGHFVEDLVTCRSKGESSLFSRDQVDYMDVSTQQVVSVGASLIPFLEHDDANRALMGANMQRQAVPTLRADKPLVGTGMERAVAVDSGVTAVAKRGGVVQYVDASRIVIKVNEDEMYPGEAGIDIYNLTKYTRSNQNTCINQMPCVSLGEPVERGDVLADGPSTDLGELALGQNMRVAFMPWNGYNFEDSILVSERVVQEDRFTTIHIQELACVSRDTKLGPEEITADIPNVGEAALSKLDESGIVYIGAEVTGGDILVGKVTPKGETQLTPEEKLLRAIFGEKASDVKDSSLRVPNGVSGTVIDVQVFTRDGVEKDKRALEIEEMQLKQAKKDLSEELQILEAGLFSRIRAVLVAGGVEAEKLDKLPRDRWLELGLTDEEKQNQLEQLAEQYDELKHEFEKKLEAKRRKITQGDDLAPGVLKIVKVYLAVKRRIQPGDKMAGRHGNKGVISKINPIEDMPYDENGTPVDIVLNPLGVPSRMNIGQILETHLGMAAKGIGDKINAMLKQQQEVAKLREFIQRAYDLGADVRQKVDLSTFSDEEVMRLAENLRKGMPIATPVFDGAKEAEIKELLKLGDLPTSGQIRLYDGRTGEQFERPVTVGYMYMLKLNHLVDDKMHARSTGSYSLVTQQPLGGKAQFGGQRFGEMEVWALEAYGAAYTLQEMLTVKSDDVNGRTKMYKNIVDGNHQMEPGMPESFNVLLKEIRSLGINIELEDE
Sequence (P0A8T7 whole entry partner): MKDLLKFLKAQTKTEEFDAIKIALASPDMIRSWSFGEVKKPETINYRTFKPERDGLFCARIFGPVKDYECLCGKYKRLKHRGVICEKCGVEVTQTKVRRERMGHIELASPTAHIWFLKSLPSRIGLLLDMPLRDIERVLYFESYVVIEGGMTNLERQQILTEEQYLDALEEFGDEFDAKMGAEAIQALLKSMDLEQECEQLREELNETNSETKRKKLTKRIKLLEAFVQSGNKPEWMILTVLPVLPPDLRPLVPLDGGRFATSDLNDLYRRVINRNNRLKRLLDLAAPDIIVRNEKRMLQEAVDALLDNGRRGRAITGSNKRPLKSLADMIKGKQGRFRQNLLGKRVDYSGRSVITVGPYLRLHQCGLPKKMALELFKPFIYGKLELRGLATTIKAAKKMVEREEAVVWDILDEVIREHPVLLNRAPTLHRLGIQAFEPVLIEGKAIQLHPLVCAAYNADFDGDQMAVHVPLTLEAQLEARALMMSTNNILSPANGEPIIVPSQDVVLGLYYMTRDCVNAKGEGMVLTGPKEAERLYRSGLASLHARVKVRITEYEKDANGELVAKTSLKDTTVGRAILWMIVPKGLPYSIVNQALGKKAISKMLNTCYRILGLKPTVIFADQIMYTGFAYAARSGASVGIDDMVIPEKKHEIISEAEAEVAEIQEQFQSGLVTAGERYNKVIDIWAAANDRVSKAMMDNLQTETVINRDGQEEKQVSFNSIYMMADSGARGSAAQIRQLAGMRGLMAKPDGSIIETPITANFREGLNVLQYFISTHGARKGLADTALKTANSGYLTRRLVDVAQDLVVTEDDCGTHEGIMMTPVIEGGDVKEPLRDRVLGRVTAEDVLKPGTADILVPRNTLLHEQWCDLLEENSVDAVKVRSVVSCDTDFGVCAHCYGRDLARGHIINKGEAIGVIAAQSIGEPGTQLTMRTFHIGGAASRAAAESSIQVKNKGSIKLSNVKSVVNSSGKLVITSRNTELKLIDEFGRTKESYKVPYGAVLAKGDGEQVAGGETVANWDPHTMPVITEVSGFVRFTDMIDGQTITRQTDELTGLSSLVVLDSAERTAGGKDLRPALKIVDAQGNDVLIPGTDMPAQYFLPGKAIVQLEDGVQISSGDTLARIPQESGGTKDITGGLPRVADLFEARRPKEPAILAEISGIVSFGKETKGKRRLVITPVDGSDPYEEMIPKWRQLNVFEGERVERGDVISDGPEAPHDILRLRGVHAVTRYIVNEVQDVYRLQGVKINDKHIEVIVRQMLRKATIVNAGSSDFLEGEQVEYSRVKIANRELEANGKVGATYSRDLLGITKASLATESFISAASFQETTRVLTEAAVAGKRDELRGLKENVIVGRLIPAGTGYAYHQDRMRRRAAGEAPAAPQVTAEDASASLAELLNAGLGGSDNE
Sequence (P0A7Z4 whole entry partner): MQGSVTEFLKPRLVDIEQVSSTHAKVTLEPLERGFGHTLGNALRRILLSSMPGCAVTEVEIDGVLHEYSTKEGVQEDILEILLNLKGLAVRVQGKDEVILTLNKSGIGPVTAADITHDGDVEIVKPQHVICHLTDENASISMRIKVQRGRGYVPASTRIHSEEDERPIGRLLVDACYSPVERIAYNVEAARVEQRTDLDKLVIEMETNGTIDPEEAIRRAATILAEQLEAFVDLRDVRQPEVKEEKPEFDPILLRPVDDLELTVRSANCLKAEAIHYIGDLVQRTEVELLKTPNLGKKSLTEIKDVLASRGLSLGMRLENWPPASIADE
Sequence (P0A800 whole entry partner): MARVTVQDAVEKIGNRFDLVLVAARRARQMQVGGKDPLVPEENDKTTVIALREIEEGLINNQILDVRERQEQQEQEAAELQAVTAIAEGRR
assay-procedure: E. coli RNA Polymerase Inhibition
Format: biochemical
test-settings: 0.25 h; 0.5 μM/ml of compound; room temperature, 15 minutes; control = 100

{"compound": "COC1=C2CC(C)CC(OC)C(O)C(C)/C=C(\\C)C(OC(N)=O)C(OC)/C=C\\C=C(/C)C(=O)NC(=C(C=NOC(c3ccccc3)c3ccccc3)C1=O)C2=O (centres unmarked) [III]", "measured-target": "E. coli RNA Polymerase (Escherichia coli)", "remaining activity at 500 µM (%)": 84}
{"compound": "CCCCCCCCON=CC1=C2NC(=O)/C(C)=C/C=C\\C(OC)C(OC(N)=O)/C(C)=C/C(C)C(O)C(OC)CC(C)CC(=C(OC)C1=O)C2=O (centres unmarked) [IV]", "measured-target": "E. coli RNA Polymerase (Escherichia coli)", "remaining activity at 500 µM (%)": 110}
{"compound": "COC1=C2CC(C)CC(OC)C(O)C(C)/C=C(\\C)C(OC(N)=O)C(OC)/C=C\\C=C(/C)C(=O)NC(=C(C=NN3CCN(C)CC3)C1=O)C2=O (centres unmarked) [II]", "measured-target": "E. coli RNA Polymerase (Escherichia coli)", "remaining activity at 500 µM (%)": 106}
{"compound": "COC1=C2CC(C)CC(OC)C(O)C(C)/C=C(\\C)C(OC(N)=O)C(OC)/C=C\\C=C(/C)C(=O)NC(=C(C=NC(C)(C)C)C1=O)C2=O (centres unmarked) [Example I]", "measured-target": "E. coli RNA Polymerase (Escherichia coli)", "remaining activity at 500 µM (%)": 99}
{"compound": "COC1=C2CC(C)CC(OC)C(O)C(C)/C=C(\\C)C(OC(N)=O)C(OC)/C=C\\C=C(/C)C(=O)NC(=C(C=NN3CCN(Cc4ccccc4)CC3)C1=O)C2=O (centres unmarked) [V]", "measured-target": "E. coli RNA Polymerase (Escherichia coli)", "remaining activity at 500 µM (%)": 88}
